- test.target: insulin receptor A (UniProt P06213-2 28-1370, limits assumed)
- Sequence (P06213 other isoform, or with tags, fused parts or gaps limits assumed): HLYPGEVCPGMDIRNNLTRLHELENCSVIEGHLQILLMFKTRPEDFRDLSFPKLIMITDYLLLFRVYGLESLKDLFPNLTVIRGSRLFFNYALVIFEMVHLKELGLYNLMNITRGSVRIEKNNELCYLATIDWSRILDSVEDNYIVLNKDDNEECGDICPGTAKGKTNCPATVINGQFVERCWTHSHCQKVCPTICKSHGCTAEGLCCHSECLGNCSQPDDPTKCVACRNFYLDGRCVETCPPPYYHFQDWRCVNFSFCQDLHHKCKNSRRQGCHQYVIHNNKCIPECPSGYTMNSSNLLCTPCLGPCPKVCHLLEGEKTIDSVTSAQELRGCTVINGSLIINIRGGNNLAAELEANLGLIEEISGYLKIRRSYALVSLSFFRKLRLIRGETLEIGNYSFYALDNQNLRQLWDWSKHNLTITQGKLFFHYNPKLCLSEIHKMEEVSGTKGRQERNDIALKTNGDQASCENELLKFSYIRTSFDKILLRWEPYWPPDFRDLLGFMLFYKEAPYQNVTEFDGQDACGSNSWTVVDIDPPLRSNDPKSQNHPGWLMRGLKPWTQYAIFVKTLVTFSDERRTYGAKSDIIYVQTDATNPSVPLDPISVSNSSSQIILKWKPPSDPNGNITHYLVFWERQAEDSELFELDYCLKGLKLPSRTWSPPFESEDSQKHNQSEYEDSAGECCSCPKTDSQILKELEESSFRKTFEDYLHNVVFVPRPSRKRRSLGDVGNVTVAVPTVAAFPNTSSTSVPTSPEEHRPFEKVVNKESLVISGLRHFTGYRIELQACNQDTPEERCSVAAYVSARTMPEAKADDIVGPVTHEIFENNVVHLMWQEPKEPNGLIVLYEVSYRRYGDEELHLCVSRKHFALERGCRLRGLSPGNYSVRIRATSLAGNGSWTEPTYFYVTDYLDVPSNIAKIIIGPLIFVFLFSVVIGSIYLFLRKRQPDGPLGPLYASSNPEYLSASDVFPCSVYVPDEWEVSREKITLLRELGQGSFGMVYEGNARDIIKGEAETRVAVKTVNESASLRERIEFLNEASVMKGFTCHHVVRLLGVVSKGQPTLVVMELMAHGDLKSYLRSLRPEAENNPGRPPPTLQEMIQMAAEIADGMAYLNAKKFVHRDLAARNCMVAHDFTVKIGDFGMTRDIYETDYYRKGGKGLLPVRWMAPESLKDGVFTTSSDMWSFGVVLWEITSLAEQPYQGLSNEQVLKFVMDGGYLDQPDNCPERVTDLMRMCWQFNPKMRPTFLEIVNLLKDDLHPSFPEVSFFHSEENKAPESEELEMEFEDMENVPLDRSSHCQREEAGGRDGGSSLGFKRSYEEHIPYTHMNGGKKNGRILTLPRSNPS
- assay.comment: insulin receptor binding assay as in Vienberg et al. 2011; relative to human insulin on insulin receptor A (100%)
measurement.label: Insulin receptor affinity [IC50 relative to HI (%)]
Field format: number, assumed %, no unit text.

Challenge: Insulin receptor affinity [IC50 relative to HI (%)] for A14E, A21G, A22(GQAPGQAPGQEP)6-GQAP, A98K^, A99P, B3Q, B25H, B29R, desB30 human insulin/(227A, 234A, 235K hIgG4-Fc(228-447)) … (other, Cys229 (EU numbering) sulphur bound to an acetyl arm of the linker; A98K N(eps) acylated by the trivalent linker 4-[bis[2-[(2-acetyl)amino]ethyl]amino]-4-oxo-butanoyl, also called Ex 5.5) chain 1: GIVEQCCTSICSLEQLENYCGGQAPGQAPGQEPGQAPGQAPGQEPGQAPGQAPGQEPGQAPGQAPGQEPGQAPGQAPGQEPGQAPGQAPGQEPGQAPKP chain 2: FVQQHLCGSHLVEALYLVCGERGFHYTPR chain 3: ASCPAPEAKGGPSVFLFPPKPKDTLMISRTPEVTCVVVDVSQEDPEVQFNWYVDGVEVHNAKTKPREEQFNSTYRVVSVLTVLHQDWLNGKEYKCKVSNKGLPSSIEKTISKAKGQPREPQVYTLPPSQEEMTKNQVSLTCLVKGFYPSDIAVEWESNGQPENNYKTTPPVLDSDGSFFLYSRLTVDKSRWQEGNVFSCSVMHEALHNHYTQKSLSLSLGK ?
Response given: 3.34

Challenge: Insulin receptor affinity [IC50 relative to HI (%)] for (A14E, A21G, A22(GQAP)24, A118G, A119Q, A120A, A121K^, A122P, B29R, desB30 human insulin)/(227A, 234A, 235K, 297E, 315Q, 384Q, des447 hIgG4-Fc(228-447)) … (other, Cys229 (EU numbering) sulphur bound to an acetyl arm of the linker; A121K N(eps) acylated by the trivalent linker 3,5-bis[(2-acetyl)amino]benzoyl, also called Ex 5.29) chain 1: GIVEQCCTSICSLEQLENYCGGQAPGQAPGQAPGQAPGQAPGQAPGQAPGQAPGQAPGQAPGQAPGQAPGQAPGQAPGQAPGQAPGQAPGQAPGQAPGQAPGQAPGQAPGQAPGQAPGQAKP chain 2: FVNQHLCGSHLVEALYLVCGERGFFYTPR chain 3: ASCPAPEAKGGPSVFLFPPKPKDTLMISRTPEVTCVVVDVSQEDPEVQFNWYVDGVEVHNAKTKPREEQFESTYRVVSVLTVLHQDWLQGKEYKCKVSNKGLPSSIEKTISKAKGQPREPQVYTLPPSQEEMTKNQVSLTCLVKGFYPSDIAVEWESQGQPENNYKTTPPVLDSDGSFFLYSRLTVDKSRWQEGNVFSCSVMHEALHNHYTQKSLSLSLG ?
Response given: 3.06

Challenge: Insulin receptor affinity [IC50 relative to HI (%)] for (A14E, A21G, A22(GQAP)24, A118G, A119Q, A120A, A121K^, A122P, B25H, B29R, desB30 human insulin)/(227A, 234A, 235K, 297E, 315Q, 384Q, des447 hIgG4-Fc(228-447)) … (other, Cys229 (EU numbering) sulphur bound to an acetyl arm of the linker; A121K N(eps) acylated by the trivalent linker 3,5-bis[(2-acetyl)amino]benzoyl, also called Ex 5.22) chain 1: GIVEQCCTSICSLEQLENYCGGQAPGQAPGQAPGQAPGQAPGQAPGQAPGQAPGQAPGQAPGQAPGQAPGQAPGQAPGQAPGQAPGQAPGQAPGQAPGQAPGQAPGQAPGQAPGQAPGQAKP chain 2: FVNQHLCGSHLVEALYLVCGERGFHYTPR chain 3: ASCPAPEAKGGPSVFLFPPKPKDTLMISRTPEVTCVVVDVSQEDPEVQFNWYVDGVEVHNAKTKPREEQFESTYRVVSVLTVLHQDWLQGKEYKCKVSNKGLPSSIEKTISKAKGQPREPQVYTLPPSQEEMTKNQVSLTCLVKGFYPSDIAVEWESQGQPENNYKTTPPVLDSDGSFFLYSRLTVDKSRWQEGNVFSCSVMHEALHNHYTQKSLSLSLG ?
Response given: 3.56

Challenge: Insulin receptor affinity [IC50 relative to HI (%)] for A14E, A21G, A22(GQAPGQEP)6, A70K^, A71P, B25H, B29R, desB30 human insulin/(227A, 234A, 235K hIgG4-Fc(228-447)) … (other, Cys229 (EU numbering) sulphur bound to an acetyl arm of the linker; A70K N(eps) acylated by the trivalent linker 4-[bis[2-[(2-acetyl)amino]ethyl]amino]-4-oxo-butanoyl, also called Ex 5.9) chain 1: GIVEQCCTSICSLEQLENYCGGQAPGQEPGQAPGQEPGQAPGQEPGQAPGQEPGQAPGQEPGQAPGQEPKP chain 2: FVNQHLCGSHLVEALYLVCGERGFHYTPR chain 3: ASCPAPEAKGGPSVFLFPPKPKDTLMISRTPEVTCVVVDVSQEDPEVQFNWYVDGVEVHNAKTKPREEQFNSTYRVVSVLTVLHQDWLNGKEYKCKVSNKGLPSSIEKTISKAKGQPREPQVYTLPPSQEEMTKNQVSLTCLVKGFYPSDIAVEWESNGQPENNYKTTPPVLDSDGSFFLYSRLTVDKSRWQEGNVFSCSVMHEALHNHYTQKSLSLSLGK ?
Response given: 2.96

Challenge: Insulin receptor affinity [IC50 relative to HI (%)] for (A1(N(alpha)acetyl), A14E, A21G, A22(GQAP)19, A98K^, A99P, B1(N(alpha)acetyl), B25H, B29R, desB30 human insulin)/(227A, 234A, 235K, 297E, 315Q, 384Q, des447 … (other, Cys229 (EU numbering) sulphur bound to an acetyl arm of the linker; B1 N(alpha)-acetyl; A1 N(alpha)-acetyl; A98K N(eps) acylated by the trivalent linker 4-[bis[2-[(2-acetyl)amino]ethyl]amino]-4-oxo-butanoyl, Chemical insulin-Fc conjugate; also called Ex 5.27) chain 1: GIVEQCCTSICSLEQLENYCGGQAPGQAPGQAPGQAPGQAPGQAPGQAPGQAPGQAPGQAPGQAPGQAPGQAPGQAPGQAPGQAPGQAPGQAPGQAPKP chain 2: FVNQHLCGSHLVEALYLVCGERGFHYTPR chain 3: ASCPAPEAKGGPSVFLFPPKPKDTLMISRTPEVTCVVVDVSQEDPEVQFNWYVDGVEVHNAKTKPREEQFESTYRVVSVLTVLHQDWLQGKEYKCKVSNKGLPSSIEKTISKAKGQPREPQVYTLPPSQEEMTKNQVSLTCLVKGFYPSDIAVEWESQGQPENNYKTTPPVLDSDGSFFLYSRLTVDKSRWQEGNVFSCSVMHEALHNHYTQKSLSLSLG ?
Response given: 1.07

Challenge: Insulin receptor affinity [IC50 relative to HI (%)] for (A14E, A21G, A22(GQEP)19, 98K^, A99P, B25H, B29R, desB30 human insulin)/(226A, 227G, 228P, 234A, 235K, des447 hIgG4-Fc(228-447)) … (other, Cys229 (EU numbering) sulphur bound to an acetyl arm of the linker; A98K N(eps) acylated by the trivalent linker 3,5-bis[(2-acetyl)amino]benzoyl) chain 1: GIVEQCCTSICSLEQLENYCGGQEPGQEPGQEPGQEPGQEPGQEPGQEPGQEPGQEPGQEPGQEPGQEPGQEPGQEPGQEPGQEPGQEPGQEPGQEPKP chain 2: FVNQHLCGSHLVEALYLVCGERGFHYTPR chain 3: AGPCPAPEAKGGPSVFLFPPKPKDTLMISRTPEVTCVVVDVSQEDPEVQFNWYVDGVEVHNAKTKPREEQFNSTYRVVSVLTVLHQDWLNGKEYKCKVSNKGLPSSIEKTISKAKGQPREPQVYTLPPSQEEMTKNQVSLTCLVKGFYPSDIAVEWESNGQPENNYKTTPPVLDSDGSFFLYSRLTVDKSRWQEGNVFSCSVMHEALHNHYTQKSLSLSLG ?
Response given: 3.85

Data origin: patent US20200261595A1
